Test system: rodent lifetime carcinogenesis bioassay, tumor incidence TD50
Assay: carcinogenic potency in animals, long-term in vivo studies, CPDB compilation (AID 1745844)
Settings: rat; strain Fischer 344; males; in drinking water; site: thyroid gland; lesion: several types; types named in the paper; dosed 100 weeks; study length 100 weeks
value-kind: TD50

Q: Record request: TD50 value, item "[O-][Br+2]([O-])O"
A: 22.2 mg/kg/day

###

System: rodent lifetime carcinogenesis bioassay, tumor incidence TD50
Assay: carcinogenic potency in animals, long-term in vivo studies, CPDB compilation (AID 1745844)
Settings: mouse; strain B6C3F1; females; in feed; site: liver; lesion: hepatocellular carcinoma; dosed 96 weeks; study length 104 weeks
The source made the active and inactive calls. How the calls were made is not given here.
Give one outcome, nothing more. List: label 1 = active, label 0 = inactive

Illustrative cases are given below, each with its answer.
smiles | classification
CCOc1ccc(NC(C)=O)cc1 | label 0
c1ccc2c(c1)[nH]c1ccccc12 | label 1

Proceed to the following item.
Q: In this assay, the call recorded for "COc1ccc([C@@H]2CC(=O)c3c(O)cc(O[C@@H]4O[C@H](CO[C@@H]5O[C@@H](C)[C@H](O)[C@@H](O)[C@H]5O)[C@@H](O)[C@H](O)[C@H]4O)cc3O2)cc1OC" was what?
A: label 0

###

System: rodent lifetime carcinogenesis bioassay, tumor incidence TD50
Test: carcinogenic potency in animals, long-term in vivo studies, CPDB compilation (AID 1745844)
Settings: rat; strain Fischer 344; females; inhaled; site: liver; lesion: hepatocellular adenoma; dosed 103 weeks; study length 104 weeks
value-kind: TD50

Q: Can you look up TD50 on rodent lifetime carcinogenesis bioassay, tumor incidence TD50 for "FC(F)=C(F)F" ?
A: 528 mg/kg/day

###

Tested on: rodent lifetime carcinogenesis bioassay, tumor incidence TD50
Assay: carcinogenic potency in animals, long-term in vivo studies, CPDB compilation (AID 1745844)
Conditions: rat; strain Fischer 344; males; by gavage; site: subcutaneous tissue; lesion: fibroma; dosed 103 weeks; study length 105 weeks
value-kind: TD50 (mg/kg/day)
Your answer should be a plain number; it is taken to be in mg/kg/day.

smiles | TD50 / mg/kg/day
COc1c2occc2cc2ccc(=O)oc12 | 72.6

Q: Record request: TD50 value, item "Nc1cc([N+](=O)[O-])ccc1O"
A: 584

###

Test system: rodent lifetime carcinogenesis bioassay, tumor incidence TD50
Test: carcinogenic potency in animals, long-term in vivo studies, CPDB compilation (AID 1745844)
Settings: rat; strain Fischer 344; males; in feed; site: palate; lesion: squamous-cell papilloma; dosed 103 weeks; study length 104 weeks
value-kind: TD50

Q: Can you look up TD50 on rodent lifetime carcinogenesis bioassay, tumor incidence TD50 for "Nc1cc(S(=O)(=O)[O-])cc2cc(S(=O)(=O)[O-])c(N=Nc3ccc(-c4ccc(N=Nc5c(S(=O)(=O)[O-])cc6cc(S(=O)(=O)[O-])cc(N)c6c5O)c(O)c4)cc3O)c(O)c12.[Cu].[Cu].[Na+].[Na+].[Na+].[Na+]" ?
A: 1920 mg/kg/day

###

Test system: rodent lifetime carcinogenesis bioassay, tumor incidence TD50
Assay: carcinogenic potency in animals, long-term in vivo studies, CPDB compilation (AID 1745844)
Details: mouse; strain B6C3F1; females; i.p.; site: any site (literature study); lesion: several types; types named in the paper; dosed 43 weeks; study length 77 weeks
value-kind: TD50 (mg/kg/day)
Your answer should be a plain number; it is taken to be in mg/kg/day.

Q: Record request: TD50 value, item "Nc1nc(=S)c2ncn([C@H]3C[C@H](O)[C@@H](CO)O3)c2[nH]1"
A: 4.48

###

System: rodent lifetime carcinogenesis bioassay, tumor incidence TD50
Assay: carcinogenic potency in animals, long-term in vivo studies, CPDB compilation (AID 1745844)
Conditions: mouse; strain B6C3F1; males; in feed; site: any site (literature study); lesion: malignant tumor; dosed 78 weeks; study length 78 weeks
value-kind: TD50
Hi, when you answer, please include the unit after the number. Thanks!

Q: Record request: TD50 value, item "CN1CCCC1=O"
A: 2270 mg/kg/day

###

Tested on: rodent lifetime carcinogenesis bioassay, tumor incidence TD50
Assay: carcinogenic potency in animals, long-term in vivo studies, CPDB compilation (AID 1745844)
Details: rat; strain Fischer 344; males; by gavage; site: liver; lesion: hepatocellular carcinoma + neoplastic nodule; dosed 104 weeks; study length 106 weeks
value-kind: TD50 (mg/kg/day)
Your answer should be a plain number; it is taken to be in mg/kg/day.

Q: Record request: TD50 value, item "ClC=CCCl"
A: 68

###

Test system: rodent lifetime carcinogenesis bioassay, tumor incidence TD50
Assay: carcinogenic potency in animals, long-term in vivo studies, CPDB compilation (AID 1745844)
Details: mouse; strain Swiss; females; in drinking water; site: uterus; lesion: leiomyoma; dosed 78 weeks; study length 151 weeks
value-kind: TD50 (mg/kg/day)
Your answer should be a plain number; it is taken to be in mg/kg/day.

Q: Record request: TD50 value, item "C=COC(C)=O"
A: 26100

###

System: rodent lifetime carcinogenesis bioassay, tumor incidence TD50
Test: carcinogenic potency in animals, long-term in vivo studies, CPDB compilation (AID 1745844)
Settings: hamster; strain Syrian Golden; males; in drinking water; site: dermis; lesion: melanocytoma; dosed 103 weeks; study length 103 weeks
value-kind: TD50

Q: Record request: TD50 value, item "CCOC(N)=O"
A: 109 mg/kg/day

###

Tested on: rodent lifetime carcinogenesis bioassay, tumor incidence TD50
Experiment: carcinogenic potency in animals, long-term in vivo studies, CPDB compilation (AID 1745844)
Details: rat; strain Sprague-Dawley; males; in feed; site: urinary bladder; lesion: squamous-cell carcinoma; dosed 112 weeks; study length 112 weeks
value-kind: TD50

Q: Record request: TD50 value, item "S=C(SN1CCOCC1)N1CCOCC1"
A: 690 mg/kg/day

###

System: rodent lifetime carcinogenesis bioassay, tumor incidence TD50
Assay: carcinogenic potency in animals, long-term in vivo studies, CPDB compilation (AID 1745844)
Conditions: mouse; strain ICR; females; inhaled; site: lung; lesion: several types; types named in the paper; dosed 104 weeks; study length 107 weeks
value-kind: TD50
Hi, when you answer, please include the unit after the number. Thanks!

Q: Record request: TD50 value, item "ClC=C(Cl)Cl"
A: 3370 mg/kg/day

###

Test system: rodent lifetime carcinogenesis bioassay, tumor incidence TD50
Assay: carcinogenic potency in animals, long-term in vivo studies, CPDB compilation (AID 1745844)
Conditions: hamster; strain Syrian Golden; males; in drinking water; site: respiratory system; lesion: papilloma; dosed 31 weeks; study length 96 weeks
value-kind: TD50

Q: Can you look up TD50 on rodent lifetime carcinogenesis bioassay, tumor incidence TD50 for O=NN1CCCC1c1cccnc1 (stereo unspecified) ?
A: 10.1 mg/kg/day

###

System: rodent lifetime carcinogenesis bioassay, tumor incidence TD50
Test: carcinogenic potency in animals, long-term in vivo studies, CPDB compilation (AID 1745844)
Conditions: mouse; strain Swiss albino; females; in drinking water; site: gall bladder; lesion: adenoma; dosed 65 weeks; study length 73 weeks
value-kind: TD50

Q: Can you look up TD50 on rodent lifetime carcinogenesis bioassay, tumor incidence TD50 for "CN(N)C=O" ?
A: 31.5 mg/kg/day

###

Tested on: rodent lifetime carcinogenesis bioassay, tumor incidence TD50
Assay: carcinogenic potency in animals, long-term in vivo studies, CPDB compilation (AID 1745844)
Details: rat; strain Fischer 344; males; by gavage; site: skin; lesion: basal-cell adenoma; dosed 64 weeks; study length 104 weeks
value-kind: TD50
Hi, when you answer, please include the unit after the number. Thanks!

Q: Can you look up TD50 on rodent lifetime carcinogenesis bioassay, tumor incidence TD50 for "O=C1CCc2ccccc2O1" ?
A: 378 mg/kg/day

###

System: rodent lifetime carcinogenesis bioassay, tumor incidence TD50
Test: carcinogenic potency in animals, long-term in vivo studies, CPDB compilation (AID 1745844)
Conditions: rat; strain Fischer 344; females; in feed; site: pituitary gland; lesion: adenoma; dosed 78 weeks; study length 109 weeks
value-kind: TD50 (mg/kg/day)
Your answer should be a plain number; it is taken to be in mg/kg/day.

Q: Record request: TD50 value, item "Cc1ccc2c(c1[N+](=O)[O-])C(=O)c1ccccc1C2=O"
A: 63.4

###

Tested on: rodent lifetime carcinogenesis bioassay, tumor incidence TD50
Assay: carcinogenic potency in animals, long-term in vivo studies, CPDB compilation (AID 1745844)
Settings: rat; strain Fischer 344; females; by gavage; site: esophagus + forestomach + gingiva + nasal cavity + oral mucosa + palate + tongue; lesion: squamous-cell carcinoma + squamous-cell papilloma + adenocarcinoma + adenoma, NOS + carcinoma, NOS; dosed 100 weeks; study length 104 weeks
value-kind: TD50 (mg/kg/day)
Your answer should be a plain number; it is taken to be in mg/kg/day.

Q: Record request: TD50 value, item "CC(C)=CCl"
A: 25.3

###

System: rodent lifetime carcinogenesis bioassay, tumor incidence TD50
Assay: carcinogenic potency in animals, long-term in vivo studies, CPDB compilation (AID 1745844)
Conditions: rat; strain Fischer 344; females; by gavage; site: tongue; lesion: squamous-cell carcinoma; dosed 91 weeks; study length 105 weeks
value-kind: TD50 (mg/kg/day)
Your answer should be a plain number; it is taken to be in mg/kg/day.

Q: Can you look up TD50 on rodent lifetime carcinogenesis bioassay, tumor incidence TD50 for "ClCC(Cl)CCl" ?
A: 10.1
